The entries below come with measured EC50 values attached.
TARGET OF ASSAY: T1, extracellular domain (ECD) of human IGSF11 (VSIG3), HIS-tagged (human, UniProt Q5DX21 23-241, biotinylated in the ELISA of Example 4 (site not stated))
T1 construct: also called HIS-IGSF11; IGSF11-HIS; not shown: HIS6 tag
T1 sequence: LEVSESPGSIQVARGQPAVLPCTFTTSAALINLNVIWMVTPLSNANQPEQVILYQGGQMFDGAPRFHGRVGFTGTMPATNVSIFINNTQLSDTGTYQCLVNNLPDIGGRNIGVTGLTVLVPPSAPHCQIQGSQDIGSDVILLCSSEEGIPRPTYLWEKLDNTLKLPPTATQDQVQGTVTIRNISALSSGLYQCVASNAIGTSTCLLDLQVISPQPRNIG
PROTOCOL SUMMARY: ELISA, coated IGSF11-HIS, IgG1 format; EC50 grade (* >1 nM, ** 0.05-1 nM, *** 0.02-0.05 nM, **** <0.02 nM)

Here's what some known entries look like.
A-023 (human IgG1 format) (antibody, V domains shown, human IgG1 format) VH: QVQLVQSGAEVKKPGSSVKVSCKASGGTFSSYAISWVRQAPGQGLEWMGGIIPIFGTANYAQKFQGRVTITADESTSTAYMELSSLRSEDTAVYYCARPKYSSGWFYYYGMDVWGQGTTVTVSS VL: QSVLTQPPSVSAAPGQKVTISCSGSSSNIGNNYVSWYQQLPGTAPKLLIYDNNKRPSGIPDRFSGSKSGTSATLGITGLQTGDEADYYCGTWDSSLSVVFGGGTKLTVL : 0.05 to 1 nM
A-003 (human IgG1 format) (antibody, V domains shown, human IgG1 format) VH: VQLVQSGAEVKKPGSSVKVSCKASGGTFSSYAISWVRQAPGQGLEWMGGIIPIFGTANYAQKFQGRVTITADESTSTAYMELSSLRSEDTAVYYCASPRIQLWAAGGFDYWGQGTLVTVSS VL: QSALTQPASVSGSPGQSITISCTGTSSDVGGYNLVSWYQQHPGKAPKLMIYDVSNRPSGVSNRFSGSKSGNTASLTISGLQAEDEADYYCSSFTTSTTLVFGGGTKLTVL : 0.05 to 1 nM
A-010 (human IgG1 format) (antibody, V domains shown, human IgG1 format) VH: QVQLVQSGAEVKKPGASVKVSCKASGYTFTSYGISWVRQAPGQGLEWMGWISAYNGNTNYAQKLQGRVTMTTDTSTSTAYMELRSLRSDDTAVYYCARVPAWSGQFDYWGQGTLVTVSS VL: QSALTQPASVSGSPGQSITISCTGSSSDVGGYNYVSWYQQYPGKAPKLMIYDVRSRPSGVSNRFSGSKSGNTASLTISGLQAEDEADYYCTSYTSSNTLVIFGGGTKVTVL : < 0.02 nM
A-008 (human IgG1 format) (antibody, V domains shown, human IgG1 format) VH: QLQLQESGPGLVKPSETLSLTCTVSGGSISSSGYYWGWIRQPPGKGLEWIGSIYYSGSTYYNPSLKSRVTISVDTSKNQFSLKLSSVTAADTAVYYCARHRVRFGEFDAFDIWGQGTMVTVSS VL: QAVLTQPPSVSGAPGERVTLSCTGTSSNVGADFDVHWYQQFPGTAPRLLIFGSDNRPSGVPDRFSGSKSGTSASLAITGLQVEDEADYYCQAYDVRLSGWVFGGGTKLTVL : 0.02 to 0.05 nM
A-009 (human IgG1 format) (antibody, V domains shown, human IgG1 format) VH: QVQLVQSGAEVKKPGSSVKVSCKASGGTFSSYAISWVRQAPGQGLEWMGGIIPIFGTANYAQKFQGRVTITADESTSTAYMELSSLRSEDTAVYYCARGRGFGELYFDYWGQGTLVTVSS VL: ETTLTQSPATLSVSPGERATLSCRASQGVRSNIAWYQQKPGQAPRLLIYDSSTRATGIPARFSGSGSGTEFTLTISSLQSEDFAVYSCQQYKNWPRTFGQGTKVEIK : 0.05 to 1 nM
A-004 (human IgG1 format) (antibody, V domains shown, human IgG1 format) VH: EVQLVESGGGLVKPGGSLRLSCAASGFTFSSYSMNWVRQAPGKGLEWVSSISSSSSYIYYADSVKGRFTISRDNAKNSLYLQMNSLRAEDTAVYYCARGQLLWFGESALIDAFDIWGQGTMVTVSS VL: EIVLTQSPSSLSASVGDRVTITCRASQSISSYLNWYQLKPGKAPKLLIYAASILQSGVPSRFSGSGSGTDFTLTISSLQPEDFAAYYCQQSYSTPRTFGQGTKLEIK : < 0.02 nM
A-022 (human IgG1 format) (antibody, V domains shown, human IgG1 format) VH: EVQLLESGPGLVKPSQTLSLTCTVSGGSISSGGYYWSWIRQHPGKGLEWIGYIYYSGSTYYNPSLKSRVTISVDTSKNQFSLKLSSVTAADTAVYYCARASRSTDYYFDYWGQGTLVTVSS VL: QPGLTQPPSMSYGLGQTATLTCTGNRNNIGDQGAAWLQQHQGHPPKLLSYRNNNGPSGISERLSASRSGNTASLTISGLQPEDEADYYCSAWDSSLRAWVFGGGTKLTVL : < 0.02 nM
A-034 (human IgG1 format) (antibody, V domains shown, human IgG1 format) VH: QMQLVQSGGGLVKPGGSLRLSCAASGFTFSSYTMNWVRQAPGKGLEWVSSISSIGTYIYYADSVKGRFTISRDNAKNSLYLQMNSLRAEDTAVYYCARVLLSGSYYGYFDSWGQGTLVTVSS VL: QSVLTQPPSVSGAPGQRVTISCTGSSSNIGAGYDVHWYQQLPGTAPKLFIYGNSNRPSGVPDRFSGSKSGTSASLAITGLQAEDEADYYCQSYDSSLSGYVFGTGTKVTVL : 0.05 to 1 nM
A-011 (human IgG1 format) (antibody, V domains shown, human IgG1 format) VH: QVQLVESGGGVVQPGRSLRLSCAASGFTFSSYAMHWVRQAPGKGLEWVAVISYDGSNKYYADSVKGRFTISRDNSKNTLYLQMNSLRAEDTAVYYCAEGGALNYYGMDVWGQGTTVTVSS VL: SSELTQDPGVSVALGQTVRITCQGDSLRHFYATWYQQKPGQAPILVIYGKNNRPSGIPDRFSGSSSEDTASLTITGAQAEDEADYYCQSRDPRNNHLIFGGGTKLIVL : < 0.02 nM

## Input What value of EC50 has been reported for the following binder? A-035 (human IgG1 format) (antibody, V domains shown, human IgG1 format) VH: QVQLVQSGAEVKKPGASVKVSCKASGYTFTGYYMHWVRQAPGQGLEWMGWINPNSGNTGYAQKFQGRVTMTRNTSISTAYMELSSLRSEDTAVYYCARGRLERGYWYFDLWGRGTLVTVSS VL: NFMLTQPHSVSESPGRTVTISCTRSSGSITSNYVQWYQQRPGSAPTILIYEDKERPSEVPDRFSGSIDISSNSASLTISGLKTEDEADYYCQSYGGTSQGVLFGGGTKVTVL
## Output 0.02 to 0.05 nM
